The values you see were collected from ChEMBL document CHEMBL4665840.

# Test system: Enterococcus faecalis
# Experimental details: Antibacterial activity against vancomycin-resistant Enterococcus faecalis
# Type: functional
I'd appreciate it if you could supply MIC values for the items below.
A complete answer gives the number and then names the unit.

{"Structure string": "O=C1O/C(=C\\c2ccco2)C(c2ccc(O)c(Br)c2)=C1C(=O)c1ccc(O)c(Br)c1", "MIC": "128 µg/mL"}
{"Structure string": "O=C1O/C(=C\\c2cc(Br)c(O)c(Br)c2)C(c2cc(Br)c(O)c(Br)c2)=C1C(=O)c1ccco1", "MIC": "64 µg/mL"}
{"Structure string": "O=C1O/C(=C\\c2ccc(O)c(Br)c2)C(c2ccc(O)c(Br)c2)=C1C(=O)c1cccs1", "MIC": "32 µg/mL"}
{"Structure string": "Cn1cc(/C=C2\\OC(=O)C(C(=O)c3ccc(O)c(Br)c3)=C2c2ccc(O)c(Br)c2)c2ccccc21", "MIC": "8 µg/mL"}
{"Structure string": "O=C1O/C(=C\\c2cccs2)C(c2cc(Br)c(O)c(Br)c2)=C1C(=O)c1cc(Br)c(O)c(Br)c1", "MIC": "32 µg/mL"}
{"Structure string": "O=C1O/C(=C\\c2c[nH]c3ccccc23)C(c2ccc(O)c(Br)c2)=C1C(=O)c1ccc(O)c(Br)c1", "MIC": "8 µg/mL"}
{"Structure string": "O=C1O/C(=C\\c2cc(Br)c(O)c(Br)c2)C(c2cccs2)=C1C(=O)c1cc(Br)c(O)c(Br)c1", "MIC": "8 µg/mL"}

Next compound, please.
Which MIC is listed for `O=C1O/C(=C\c2ccco2)C(c2cc(Br)c(O)c(Br)c2)=C1C(=O)c1ccco1` ?
256 µg/mL
